These data points were gathered from PubChem BioAssay AID430.

# Method notes: cytotoxicity in HPDE-C7 cells, cell-based, fluorescence, HTS (AID 430);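 also: cells exposed to compound for 48 hours before viability readout; 0% = vehicle and 100% = reference cytotoxic drug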
# Experimental context: HPDE-C7 pancreatic duct cells viability, at 10 µM, active compounds read high
Among all 63,000 compounds or so, about 1,100 (1.7%) were called active. For the sample, actives were picked, then their nearest neighbours and some compounds at random. Entries with a potency or affinity are not part of this list.
Quantity measured: cytotoxicity (%)
Give bare numbers, in %.

Here's what some known entries look like.
molecule="CC1=CC(C)(C)N2C(=O)C3(C(C#N)=C(N)Oc4cc(O)ccc43)c3cccc1c32 (configuration not stated)" measured_number=68.4
molecule=CC1(C)CC(=O)C2=C(C1)NC(Nc1nc3ccccc3o1)=NC21CCCC1 measured_number=-16.5

Provide the reported cytotoxicity of each entry below, same order.
1. CCn1c(N)c(C(=O)NCc2ccco2)sc1=S
2. CCc1[nH]nc2c1C(c1cccnc1)C(C#N)=C(N)O2 (configuration not stated)
3. CCCCNC(=O)c1sc(=S)n2c1[nH]c(=O)c1ccccc12
4. CC1=CC(C)(C)N2C(=O)C3(C(C#N)=C(N)Oc4cc(C)oc(=O)c43)c3cccc1c32 (configuration not stated)
5. N#CC1=C(N)Oc2cc(O)ccc2C1c1ccccc1 (configuration not stated)
6. C(=C\c1ccccc1)/CSc1nnc(-c2ccccn2)n1Cc1ccco1
7. O=C(Cc1nc2ccccc2[nH]1)NCc1ccco1

1. -6.5
2. 4.9
3. 70.3
4. 1.3
5. -11.3
6. 33.9
7. -7.1

Provide the reported cytotoxicity of each entry below, same order.
1. CCCc1nn(C)c2c1C(c1cccnc1)C(C#N)=C(N)O2 (configuration not stated)
2. CCCCNC(=O)c1ccccc1C(=O)NCCCC

[3.9, -5.7]

Provide the reported cytotoxicity of each entry below, same order.
1. O=C(c1ccco1)N1CCN(C(=O)N2c3ccccc3Sc3ccccc32)CC1
2. O=C(CN1CCN(c2ccccn2)CC1)N1c2ccccc2Sc2ccc(C(F)(F)F)cc21
3. CN(C)c1ccc2c(c1)OC(N)=C(C#N)C2c1cccc(F)c1 (configuration not stated)
4. N#CC1=C(N)Oc2cc(O)ccc2C1c1ccncc1 (configuration not stated)
5. CCC(CC)C(=O)Nc1nnc(-c2cccs2)s1

[73.2, 22.1, 62.6, 3, 5]

Provide the reported cytotoxicity of each entry below, same order.
1. CS(=O)(=O)Nc1ccccc1C(=O)Nc1cccc(Cl)c1
2. O=C(NCc1ccco1)c1sc(=S)n2c1[nH]c(=O)c1ccccc12

5.3
82.7

Provide the reported cytotoxicity of each entry below, same order.
1. Cc1cc(C)n(-c2cccc3cccnc23)n1
2. COCCN1Cc2cccc(C(=O)NCc3ccc4c(c3)OCO4)c2C1=O
3. CCCc1cc(=O)oc2cc(C)cc(OC(=O)c3ccco3)c12
4. CC(C)(C)c1[nH]nc2c1C(c1cccnc1)C(C#N)=C(N)O2 (configuration not stated)
5. Cc1cc(C)nc(N2CCC(CNC(=O)CCc3ccccc3)CC2)n1
6. O=C(NC1CCCCC1)C(c1ccccc1F)N(Cc1ccco1)C(=O)Cn1nnc2ccccc21 (configuration not stated)

[-7, -2.7, 11.7, -9.6, -11.3, 63.4]

Provide the reported cytotoxicity of each entry below, same order.
1. Oc1ccc(N=Cc2ccc(O)c(O)c2)cc1
2. CCCCCCNC(=O)c1c(O)c2ccccc2[nH]c1=O
3. C=CCn1c(N)c(C(=O)NCc2ccco2)sc1=S
4. CC1(C)Cc2ccccc2-c2nc(NCCO)n(-c3ccccc3)c(=O)c21
5. CCN(CC)c1ccc2c(c1)C(=O)N(C)C2=O
6. O=C(c1ccccc1C(=O)N1CCN(c2ccc(F)cc2)CC1)N1CCN(c2ccc(F)cc2)CC1

1. 18
2. 4.2
3. 2.4
4. -0.1
5. 11.6
6. 2.5

Provide the reported cytotoxicity of each entry below, same order.
1. CC1=C(C(=O)N(C)C)C(c2ccc(Cl)c(Cl)c2)NC(=O)N1 (configuration not stated)
2. COc1ccc(C(NC(=O)c2ccco2)c2ccc(OC)c(OC)c2)cc1OC
3. Cn1c(NCCO)nc2c(c1=O)C1(CCCCC1)Cc1ccccc1-2
4. O=C(N1CCN(c2ccccn2)CC1)N1c2ccccc2Sc2ccccc21
5. CCCCn1c(=O)[nH]c2ccccc21
6. Cc1cc(C(=O)N2CCN(Cc3ccc4c(c3)OCO4)CC2)on1
7. Cn1c(NCCCO)nc2c(c1=O)C1(CCCCC1)Cc1ccccc1-2

1: -1.2; 2: -8.3; 3: 8.3; 4: 66.7; 5: 9.9; 6: 0.3; 7: 53.9

Provide the reported cytotoxicity of each entry below, same order.
1. CN(C(=O)C12CC3CC(CC(C3)C1)C2)C1CCS(=O)(=O)C1 (configuration not stated)
2. CC(NC(=O)Cn1cnc2c1c(=O)n(C)c(=O)n2C)c1ccccc1 (configuration not stated)
3. O=C(c1ccco1)N1c2ccccc2Sc2ccccc21

1. -5.1
2. -1.6
3. 4.4

----------
# Method notes: cytotoxicity in HPDE-C7 cells, cell-based, fluorescence, HTS (AID 430);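 also: cells exposed to compound for 48 hours before viability readout; 0% = vehicle and 100% = reference cytotoxic drug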
# Experimental context: HPDE-C7 pancreatic duct cells viability, at 10 µM, active compounds read high
In all, about 63,000 compounds went through this assay and about 1,100 (1.7%) were called active. What follows is part of a selection rich in actives, with near analogues and random picks from the rest. Measured potencies and affinities stand elsewhere.
Quantity measured: cytotoxicity

Here's what some known entries look like.
smiles_data=CCn1c(=O)c(C(=O)Nc2cccnc2)c(O)c2ccccc21 quantity_measured=cytotoxicity result="15.8% (inactive)"
smiles_data=CCn1c(=O)c(C(=O)Nn2c(C)nc3ccccc3c2=O)c(O)c2ccccc21 quantity_measured=cytotoxicity result="21.7% (inactive)"
smiles_data=CCOC(=O)c1cnn(-c2ncnc3c2oc2ccccc23)c1N quantity_measured=cytotoxicity result="-2.5% (inactive)"
smiles_data=O=C(Cn1nnc(-c2ccccc2NC(=O)c2cccs2)n1)Nc1ccccc1 quantity_measured=cytotoxicity result="-6.9% (inactive)"
smiles_data=CC1(C)CC(=O)C2=C(C1)N(c1cccc(O)c1)C1=C(C2)C(=O)CC(C)(C)C1 quantity_measured=cytotoxicity result="59.8% (active)"

We now examine a further compound.
Identify measured cytotoxicity corresponding to CC1(C)CC(=O)C=C(Nc2cccc(O)c2)C1
1.7% (inactive)

----------
I'd be grateful if you could share measured cytotoxicity for these entries.
# Method notes: cytotoxicity in HPDE-C7 cells, cell-based, fluorescence, HTS (AID 430);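 also: cells exposed to compound for 48 hours before viability readout; 0% = vehicle and 100% = reference cytotoxic drug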
# Experimental context: HPDE-C7 pancreatic duct cells viability, at 10 µM, active compounds read high
About 1,100 (1.7%) of roughly 63,000 compounds were called active. The full list was thinned out, with actives kept by preference. Entries with a potency or affinity are not part of this list.
Answers are plain numbers, in %.

Here's what some known entries look like.
molecule=COc1ccc(N(C)S(=O)(=O)c2cccc3cccnc23)c(OC)c1 measured_number=51.4
molecule="COc1ccc(NC(=O)C2CCCN2S(=O)(=O)c2cccc3cccnc23)c(OC)c1 (stereo not given)" measured_number=5.8
molecule=CS(=O)(=O)N1CCc2cc(-c3csc(NC(=O)Cc4cccs4)n3)ccc21 measured_number=-7.8
molecule=O=C(Cc1cccs1)Nc1nc(-c2ccccc2)cs1 measured_number=-35.2

We now examine a further molecule.
Identify measured cytotoxicity corresponding to CC1Cc2cc(-c3csc(NC(=O)Cc4cccs4)n3)ccc2N1S(C)(=O)=O (stereo not given)
56.2

----------
# Method notes: cytotoxicity in HPDE-C7 cells, cell-based, fluorescence, HTS (AID 430);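 also: cells exposed to compound for 48 hours before viability readout; 0% = vehicle and 100% = reference cytotoxic drug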
# Experimental context: HPDE-C7 pancreatic duct cells viability, at 10 µM, active compounds read high
The whole screen tested about 63,000 compounds, of which about 1,100 (1.7%) were called active. This excerpt belongs to a sample that is enriched for actives. Results with a measured potency or affinity are listed apart.
Quantity measured: cytotoxicity (%)
Numbers only, in %.

compound=C=CCOc1nc2c(c(=O)n(C)c(=O)n2C)n1Cc1ccc(Cl)cc1Cl measured_number=-22.3
compound=Cc1nn(CC(=O)NCc2ccccc2)c(=O)c2ccccc12 measured_number=-4.9
compound="CCC(C)NC(=O)CCS(=O)(=O)c1ccc2c(c1)n(C)c(=O)c(=O)n2C (stereo unspecified)" measured_number=-0.5
compound=CCOC(=O)C1=C(N2CCCCC2)c2cc3c(n2C1=O)CCCC3 measured_number=10.1
compound=Cc1cc(C)c2c(CC(=O)NCc3ccco3)coc2c1 measured_number=4.1
compound=O=C(Cc1cccs1)NCc1ccco1 measured_number=5.7
compound=C=CCOc1nc2c(c(=O)n(Cc3ccc(Cl)cc3)c(=O)n2C)n1C measured_number=6.6
compound=C=CCOc1nc2c(c(=O)n(C)c(=O)n2C)n1Cc1ccc(Cl)cc1 measured_number=59.6

Provide the reported cytotoxicity of each entry below, same order.
1. CCN(Cc1cc2cc(C)ccc2[nH]c1=O)C(=O)c1cccc(OC)c1
2. CCSc1ncnc2c(C#N)c3n(c12)CCCCC3
3. O=C1CC(N2CCN(C3CC(=O)N(CCc4ccccc4)C3=O)CC2)C(=O)N1CCc1ccccc1 (stereo unspecified)

1: 0.1; 2: -13.6; 3: -9.9
